Origin of the recorded values: patent US10005767B2

test system: human primary T-cells, IL-2 stimulated proliferation (JAK-1 and JAK-3 dependent; reported as JAK3 activity); experiment: Human primary T-cell proliferation stimulated by IL-2 (Example 3); type: cell-based; conditions: Homo sapiens, T-cell, tested under conditions described in Example 3 (IL-2 stimulated human primary T-cell proliferation); read-out: ability to inhibit JAK3 activity, IC50 range (Table V)
measure_name: IC50

Solved cases (6 shown):
- compound: "Cc1cnc(Nc2ccc3c(c2)CCC(N2CCCC2)CC3)nc1Nc1ccc2oc(=O)[nH]c2c1 (stereo not shown) [IV-1]"
  IC50: "< 500 nM"
- compound: "Cc1cc(N2CCN(C)CC2)ncc1Nc1ncc(C)c(Nc2ccc3oc(=O)[nH]c3c2)n1 [II-143]"
  IC50: "500 to 5000 nM"
- compound: "Cc1cnc(Nc2ccc3c(c2)C=CCNC3=O)nc1Nc1ccc2oc(=O)[nH]c2c1 [IV-18]"
  IC50: "< 500 nM"
- compound: "Cc1cnc(Nc2ccc(OCCN(C)C)cc2)nc1Nc1ccc2oc(=O)[nH]c2c1 [Compound I-426]"
  IC50: "< 500 nM"
- compound: "Cc1cnc(Nc2cccc(C=O)c2)nc1Nc1ccc2oc(=O)[nH]c2c1 [Compound I-1]"
  IC50: "500 to 5000 nM"
- compound: "Cc1cnc(Nc2cccc(C(C)NC(C)C)c2)nc1Nc1ccc2oc(=O)[nH]c2c1 (stereo not shown) [Compound I-209]"
  IC50: "< 500 nM"

Prompt: Consider the compound shown here: Cc1ccc(F)c(Nc2ncc(C)c(Nc3ccc4oc(=O)[nH]c4c3)n2)c1 [Compound I-515] What is its recorded IC50?
Response: < 500 nM

Prompt: Which IC50 is listed for Cc1cnc(Nc2ccc(N3CCC(NC(=O)NCc4ccccc4)C3)nc2)nc1Nc1ccc2oc(=O)[nH]c2c1 (stereo not shown) [II-98] ?
Response: < 500 nM

Prompt: Any idea what IC50 was measured for Cc1cnc(Nc2ccccc2Cl)nc1Nc1ccc2oc(=O)[nH]c2c1 [Compound I-520] ?
Response: 500 to 5000 nM

Prompt: Which IC50 is listed for CCCN1Cc2ccc(Nc3ncc(C)c(Nc4ccc5oc(=O)[nH]c5c4)n3)cc2C1 [III-6] ?
Response: < 500 nM

Prompt: For Cc1cnc(Nc2cccc(C#N)c2)nc1Nc1ccc2oc(=O)[nH]c2c1 [Compound I-26] , what is its reported IC50?
Response: < 500 nM

* * *

tested on: human primary T-cells, IL-2 stimulated proliferation (JAK-1 and JAK-3 dependent; reported as JAK3 activity); assay: Human primary T-cell proliferation stimulated by IL-2 (Example 3); format: cell-based; conditions: Homo sapiens, T-cell, tested under conditions described in Example 3 (IL-2 stimulated human primary T-cell proliferation); read-out: ability to inhibit JAK3 activity, IC50 range (Table V)
pIC50: −log10 of the molar value.
In this section we review reported pIC50 values for a set of molecules.

- molecule: "COc1cc(Nc2ncc(C)c(Nc3ccc4oc(=O)[nH]c4c3)n2)ccc1C(=O)N1CCN(C)CC1 [Compound I-270]"
  pIC50: "> 6.30"
- molecule: "Cc1cnc(Nc2ccc(N3CCC4CCC3N4C)cc2)nc1Nc1ccc2oc(=O)[nH]c2c1 (centres unmarked) [Compound I-123]"
  pIC50: "> 6.30"
- molecule: "Cc1cnc(Nc2ccc(N3CC4(C)CN(C)CC(C)(C3)C4)c(F)c2)nc1Nc1ccc2oc(=O)[nH]c2c1 [Compound I-6]"
  pIC50: "> 6.30"

Prompt: Name the recorded pIC50 for CN1CCN(c2ccc(Nc3ncc(F)c(Nc4ccc5oc(=O)n(C)c5c4)n3)cn2)CC1 [II-24] .
Response: 5.30 to 6.30

Prompt: Which pIC50 reading was recorded for the molecule O=c1[nH]c2cc(Nc3nc(Nc4ccc(N5C[C@@H]6C[C@H]5CO6)nc4)ncc3F)ccc2o1 [II-34] ?
Response: > 6.30

Prompt: GET /values?readout=pIC50&item= CCN1CCN(c2ccc(Nc3ncc(C)c(Nc4ccc5oc(=O)[nH]c5c4)n3)cc2C(F)(F)F)CC1 [Compound I-110]
Response: > 6.30

Prompt: What does the record list as pIC50 for CCN(CC)C1CCN(c2ccc(Nc3ncc(C)c(Nc4ccc5oc(=O)[nH]c5c4)n3)cn2)C1 (centres unmarked) [II-82] ?
Response: > 6.30

Prompt: Field request: pIC50 | item: CC(=O)c1ccc(F)c(Nc2ncc(C)c(Nc3ccc4oc(=O)[nH]c4c3)n2)c1 [Compound I-519]
Response: > 6.30

Prompt: GET /values?readout=pIC50&item= Cc1ccc(Nc2ncc(C)c(Nc3ccc4oc(=O)[nH]c4c3)n2)cc1CF [Compound I-439]
Response: > 6.30

Prompt: Sample Cc1cnc(Nc2ccc(N3CCC[C@@H](N(C)C(=O)OC(C)(C)C)C3)nc2)nc1Nc1ccc2oc(=O)[nH]c2c1 [II-91] — what was its pIC50?
Response: > 6.30

Prompt: Query: pIC50; subject: Cc1cnc(Nc2cccc(S(N)(=O)=O)c2)nc1Nc1cc(F)c2oc(=O)[nH]c2c1 [Compound I-248]
Response: > 6.30

Prompt: Can you look up the measured pIC50 of Cc1cc(Nc2ncc(C)c(Nc3ccc4oc(=O)[nH]c4c3)n2)c(C)cc1Cl [Compound I-176] for me?
Response: 5.30 to 6.30

Prompt: Could you tell me which pIC50 is on file for COc1ccc(Nc2ncc(C)c(Nc3cc(C)c4oc(=O)[nH]c4c3)n2)cc1C [Compound I-429] ?
Response: > 6.30

Prompt: Need pIC50, item Cc1cnc(Nc2ccc(N3CCN(C(=O)OC(C)(C)C)[C@@H](C)C3)nc2)nc1Nc1ccc2oc(=O)[nH]c2c1 [II-41]
Response: > 6.30

* * *

system: human primary T-cells, IL-2 stimulated proliferation (JAK-1 and JAK-3 dependent; reported as JAK3 activity); experiment: Human primary T-cell proliferation stimulated by IL-2 (Example 3); format: cell-based; settings: Homo sapiens, T-cell, tested under conditions described in Example 3 (IL-2 stimulated human primary T-cell proliferation); read-out: ability to inhibit JAK3 activity, IC50 range (Table V)
Counter-ions that a name gives are not always drawn.
measure_name: IC50

- molecule: "COc1ccc(Nc2ncc(C)c(Nc3ccc4oc(=O)[nH]c4c3)n2)cc1C(=O)N1CCOCC1"
  IC50: "< 500 nM"
- molecule: "Cc1cnc(Nc2cccc(S(C)(=O)=O)c2)nc1Nc1cc(F)c2oc(=O)[nH]c2c1"
  IC50: "< 500 nM"
- molecule: "Cc1cnc(Nc2cnc(C3CC4CCC(C3)N4)c(C)c2)nc1Nc1ccc2oc(=O)[nH]c2c1 (stereo not shown)"
  IC50: "500 to 5000 nM"
- molecule: "Cc1cnc(Nc2ccc(C(=O)NC3CCC3)cc2)nc1Nc1ccc2oc(=O)n(COP(=O)(O)O)c2c1"
  IC50: "< 500 nM"
- molecule: "COc1cc(C)cc(Nc2ncc(C)c(Nc3cc(F)c4oc(=O)[nH]c4c3)n2)c1"
  IC50: "< 500 nM"

Prompt: Field request: IC50 | item: COc1cc(Nc2ncc(C)c(Nc3ccc4oc(=O)[nH]c4c3)n2)cc2ccccc12
Response: < 500 nM

Prompt: Please report the recorded IC50 for COc1cc(Nc2ncc(C)c(Nc3ccc4oc(=O)[nH]c4c3)n2)c(F)cc1F .
Response: 500 to 5000 nM

Prompt: If you can, please state the reported IC50 value of COc1cc(Nc2ncc(C)c(Nc3ccc4oc(=O)[nH]c4c3)n2)cc(Cl)c1OC .
Response: < 500 nM

Prompt: Item Cc1cccc(Nc2ncc(C)c(Nc3ccc4oc(=O)[nH]c4c3)n2)c1 has what recorded IC50?
Response: < 500 nM

Prompt: If you can, please state the reported IC50 value of Cc1cnc(Nc2cc(C(=O)NC3CCC3)cc(C(F)(F)F)c2)nc1Nc1ccc2oc(=O)[nH]c2c1 .
Response: < 500 nM

Prompt: So what does the record say about IC50 for Cc1cnc(Nc2ccnc(N3CCN(C)CC3)c2)nc1Nc1ccc2oc(=O)[nH]c2c1 ?
Response: > 10000 nM

Prompt: If you can, please state the reported IC50 value of Cc1cnc(Nc2ccc(C(=O)N3CCCC3)cc2)nc1Nc1ccc2oc(=O)[nH]c2c1 .
Response: < 500 nM

Prompt: Need IC50, item COC(=O)N1C2CCC1CC(c1ncc(Nc3ncc(C)c(Nc4ccc5oc(=O)[nH]c5c4)n3)cc1C)C2 (stereo not shown)
Response: < 500 nM

Prompt: Returns the measured IC50 for the input molecule. Input: COc1ncc(Nc2ncc(C)c(Nc3ccc4oc(=O)[nH]c4c3)n2)cc1C(F)(F)F
Response: < 500 nM

Prompt: So what's the measured IC50 for this one? COc1cc(Nc2ncc(C)c(Nc3ccc4oc(=O)[nH]c4c3)n2)ccc1-c1cccnc1 [Compound I-506, formate salt]
Response: < 500 nM

Prompt: Record request: IC50 value, item CCc1ccccc1Nc1ncc(C)c(Nc2ccc3oc(=O)[nH]c3c2)n1
Response: 500 to 5000 nM
